The measurements presented in this section are drawn from paper PMC5540273.

Parameter: %Inh. Scope: all listed entries.
# Test system: OSR1;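 further: KINOMEscan kinase panel screen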
# Construct: gene OXSR1
# cond: concentration: 1 μM,replicates: in singlicate; n = 1
A number alone suffices; assume %.

Below, 7 compounds whose answers are already recorded.
Query :: Reported %Inh for C[C@@H]1CNc2c(sc3ccc4nc(-c5ccc(O)cc5)ccc4c23)C(=O)N1 : what is it?
Result :: 0

Query :: Reported %Inh for NC(=O)Nc1sc(-c2ccc(F)cc2)cc1C(N)=O : what is it?
Result :: 16

Query :: Reported %Inh for Cc1cccc(-c2nc(Nc3ccncc3)c3sccc3n2)n1 : what is it?
Result :: 24

Query :: Reported %Inh for COc1cc2nccc(Nc3ccc(Oc4ccccc4)cc3)c2cc1OC.Cl : what is it?
Result :: 0

Query :: Reported %Inh for Cl.Nc1n[nH]c2cc(-c3ccccn3)ccc12 : what is it?
Result :: 11

Query :: Reported %Inh for CC(C)c1nc(-c2cccc(NS(=O)(=O)c3ccccc3)c2)c(-c2ccnc(Nc3ccc4c(c3)CN(C)CC4)n2)s1 : what is it?
Result :: 14

Query :: Reported %Inh for NC(=O)c1ccc(-c2cc3ncnc(SCC(=O)O)c3s2)cc1 : what is it?
Result :: 0

Let's switch to this compound now.
Query :: Reported %Inh for CCN1CCN(CCCC(=O)Nc2n[nH]c3nc(-c4ccc(O)cc4)c(Br)cc23)CC1 : what is it?
Result :: 0
